Tested on: Staphylococcus aureus
Run description: Antibacterial activity against methicillin resistant Staphylococcus aureus ATCC33591 assessed as inhibition of bacterial growth incubated for 24 hrs by broth microdilution method
Type: functional
Quantity measured: log10(MIC) (log10 of the value in µg/mL)
In plain terms, each number is the log10 of measured MIC in µg/mL.

CN1CCc2c([nH]c3ccccc23)C1c1ccc(NC(=O)c2cc(C(F)(F)F)cc(C(F)(F)F)c2)cc1 (centres undefined)    1.51

Inquiry: Find the measured log10(MIC) of COC(=O)c1ccc(C(=O)Nc2ccc(C3c4[nH]c5ccccc5c4CCN3C)cc2)cc1 (centres undefined) and report it.
Reply text: 1.51

Inquiry: Find the measured log10(MIC) of "CO[C@H]1/C=C/O[C@@]2(C)Oc3c(C)c(O)c4c(O)c(c(/C=N/N5CCN(C)CC5)c(O)c4c3C2=O)NC(=O)/C(C)=C\C=C\[C@H](C)[C@H](O)[C@@H](C)[C@@H](O)[C@@H](C)[C@H](OC(C)=O)[C@@H]1C" and report it.
Reply text: -0.60

Inquiry: Find the measured log10(MIC) of "O=C(O)c1cn(C2CC2)c2cc(N3CCNCC3)c(F)cc2c1=O" and report it.
Reply text: -0.30

Inquiry: Find the measured log10(MIC) of CN1CCc2c([nH]c3ccccc23)C1c1ccc(NC(=O)c2ccccc2F)cc1 (centres undefined) and report it.
Reply text: 1.51

Inquiry: Find the measured log10(MIC) of CN1CCc2c([nH]c3ccccc23)C1c1ccc(NC(=O)c2ccc(Cl)cc2)cc1 (centres undefined) and report it.
Reply text: 1.20

Inquiry: Find the measured log10(MIC) of CN1CCc2c([nH]c3ccccc23)C1c1ccc(NC(=O)c2cccc(F)c2)cc1 (centres undefined) and report it.
Reply text: 0.60

Inquiry: Find the measured log10(MIC) of CN1CCc2c([nH]c3ccccc23)C1c1ccc(NC(=O)c2cccc(C(F)(F)F)c2)cc1 (centres undefined) and report it.
Reply text: 1.51

Inquiry: Find the measured log10(MIC) of Cc1ccccc1C(=O)Nc1ccc(C2NCCc3c2[nH]c2ccccc32)cc1 (centres undefined) and report it.
Reply text: 1.51

All figures here come from ChEMBL document CHEMBL5576067.
